- TEST_NAME: Pharmacokinetic tests in male SD rats
- Format: in vivo
- CONDITION_INFO: rat, oral gavage (po), 10 mg/kg, plasma
- Procedure: Three healthy adult male SD rats, 6-8 weeks old, weighing 200-300 grams. EDTA-Na2 anticoagulant, weighed 11.2 g EDTA-Na2 and placed it in a reagent bottle. Added 100 mL physiological saline and shaked to dissolve completely. […] A quantitative detection method for the analyte was established using Shimadzu liquid chromatography and Triple Quad™ 6500+AB mass spectrometry. The concentration of the parent drug in plasma was analyzed. […]
For each of the compounds below, state its MRT last.
The answer is to be given in h; state only the numeric part.

Incoming: I'd like to know its MRT last. The compound in question is CCc1cc(Nc2ncc(Br)c(Nc3ccccc3P3(=O)CCCC3)n2)c(OC)cc1N1CC2(CCN(C(=O)CN3CCC(c4cc5c(cc4F)c(N4CCC(=O)NC4=O)nn5C)C(F)(F)C3)CC2(F)F)C1 (stereo not shown)
Outgoing: 6.6

Incoming: I'd like to know its MRT last. The compound in question is CCc1cc(Nc2ncc(Cl)c(Nc3ccccc3C(=O)NC)n2)c(OC)cc1N1CCN(C(=O)CN2CCC(c3cc4c(cc3F)c(N3CCC(=O)NC3=O)nn4C)C(F)(F)C2)CC1 (stereo not shown)
Outgoing: 5.63

Incoming: I'd like to know its MRT last. The compound in question is COc1cc(N2CCC(CN3CCN(c4ccc5c(c4)C(=O)N(C4CCC(=O)NC4=O)C5=O)CC3)CC2)c(-c2cnn(C)c2)cc1Nc1ncc(Br)c(Nc2ccc(C3CC3)cc2P(C)(C)=O)n1 (stereo not shown) [DZL-1, reference compound]
Outgoing: 6.11

Incoming: I'd like to know its MRT last. The compound in question is CCc1cc(Nc2ncc(Cl)c(Nc3ccccc3P(C)(C)=O)n2)c(OC)cc1N1CC2(CCN(C(=O)CN3CCC(c4cc5c(cc4F)c(N4CCC(=O)NC4=O)nn5C)C(F)(F)C3)CC2)C1 (stereo not shown)
Outgoing: 5.1

====

- Test system: Baf3-L858R-T790M - C797S (Baf3-LTC)
- TEST_NAME: Cell anti-proliferation experiment (CTG)
- Format: cell-based
- CONDITION_INFO: 72 h, class symbol
pIC50: −log10 of the molar value.
RECORDED_ENDPOINT: pIC50

Incoming: I'd like to know its pIC50. The compound in question is COc1cc(N2CCN(C(=O)CN3CCC(c4cc5c(cc4F)c(N4CCC(=O)NC4=O)nn5C)C(F)(F)C3)CC2)c(Cl)cc1Nc1ncc(Br)c(Nc2ccccc2P(C)(C)=O)n1 (centres unmarked) [TC-138]
Outgoing: > 8.00

Incoming: I'd like to know its pIC50. The compound in question is CCc1cc(Nc2ncc(Cl)c(Nc3ccccc3P(C)(C)=O)n2)c2c(c1N1CCN(C(=O)CN3CCC(c4cc5c(cc4F)c(N4CCC(=O)NC4=O)nn5C)C(F)(F)C3)CC1)CCO2 (centres unmarked) [TC-135]
Outgoing: > 8.00

Incoming: I'd like to know its pIC50. The compound in question is COc1cc(N2CCN(C(=O)CN3CCC(c4cc5c(cc4F)c(N4CCC(=O)NC4=O)nn5C)C(F)(F)C3)CC2)ccc1Nc1ncc(Cl)c(Nc2ccccc2P(C)(C)=O)n1 (centres unmarked) [TC-211]
Outgoing: 7.00 to 8.00

Incoming: I'd like to know its pIC50. The compound in question is CCc1cc(Nc2ncc(Cl)c(Nc3ccccc3N(C)S(C)(=O)=O)n2)c(OC)cc1N1CCN(C(=O)CN2CCC(c3cc4c(cc3F)c(N3CCC(=O)NC3=O)nn4C)C(F)(F)C2)CC1 (centres unmarked) [TA-013]
Outgoing: 7.00 to 8.00

Incoming: I'd like to know its pIC50. The compound in question is COc1nc(N2CCN(C(=O)CN3CCC(c4cc5c(cc4F)c(N4CCC(=O)NC4=O)nn5C)C(F)(F)C3)CC2)ccc1Nc1ncc(Cl)c(Nc2ccccc2P(C)(C)=O)n1 (centres unmarked) [TC-125]
Outgoing: 7.00 to 8.00

====

For each of the compounds below, state its pIC50.
- Tested on: A549
- TEST_NAME: Cell anti-proliferation experiment (CTG)
- Format: cell-based
- CONDITION_INFO: Homo sapiens, A549, 72 h, A549 (wild-type EGFR), class symbol
pIC50: −log10 of the molar value.

Incoming: I'd like to know its pIC50. The compound in question is CCc1cc(Nc2ncc(Br)c(Nc3ccccc3P(C)(C)=O)n2)c(OC)cc1N1CCC2(CC1)CN(C(=O)CN1CCC(c3cc4c(cc3F)c(N3CCC(=O)NC3=O)nn4C)C(F)(F)C1)C2 (stereo not shown) [TC-226]
Outgoing: 6.00 to 7.00

Incoming: I'd like to know its pIC50. The compound in question is COc1nc(N2CCN(C(=O)CN3CCC(c4cc5c(cc4F)c(N4CCC(=O)NC4=O)nn5C)C(F)(F)C3)CC2)ccc1Nc1ncc(Cl)c(Nc2ccccc2P(C)(C)=O)n1 (stereo not shown) [TC-125]
Outgoing: 6.00 to 7.00

Incoming: I'd like to know its pIC50. The compound in question is CCc1cc(Nc2ncc(Cl)c(Nc3ccccc3P(C)(C)=O)n2)c(OC)cc1N1CCN(C(=O)CN2CCC(c3cc4c(cc3F)c(N3CCC(=O)NC3=O)nn4C)CC2)CC1 [TC-213]
Outgoing: < 6.00

Incoming: I'd like to know its pIC50. The compound in question is COc1cc(N2CCN(C(=O)CN3CCC(c4cc5c(cc4F)c(N4CCC(=O)NC4=O)nn5C)C(F)(F)C3)CC2)c(-c2cnn(C)c2)cc1Nc1ncc(Br)c(Nc2ccccc2P(C)(C)=O)n1 (stereo not shown) [TC-224]
Outgoing: 6.00 to 7.00

Incoming: I'd like to know its pIC50. The compound in question is CCc1cc(Nc2ncc(Cl)c(Nc3ccccc3C(=O)NC)n2)c(OC)cc1N1CC2(CN(C(=O)CN3CCC(c4cc5c(cc4F)c(N4CCC(=O)NC4=O)nn5C)C(F)(F)C3)C2)C1 (stereo not shown) [TA-019]
Outgoing: < 6.00

Incoming: I'd like to know its pIC50. The compound in question is CCc1cc(Nc2ncc(Cl)c(Nc3ccccc3P(C)(C)=O)n2)c(OC)cc1N1CC2(CCN(C(=O)CN3CCC(c4cc5c(cc4F)c(N4CCC(=O)NC4=O)nn5C)CC3)CC2)C1 [TC-093]
Outgoing: < 6.00

Incoming: I'd like to know its pIC50. The compound in question is CCc1cc(Nc2ncc(Cl)c(Nc3ccccc3P(C)(C)=O)n2)c(OC)cc1N1CC2(CCN(C(=O)CN3CCC(c4cc5c(cc4F)c(N4CCC(=O)NC4=O)nn5C)C(F)(F)C3)CC2)C1 (stereo not shown) [TA-023]
Outgoing: < 6.00

Incoming: I'd like to know its pIC50. The compound in question is COc1cc(N2CCN(C(=O)CN3CCC(c4cc5c(cc4F)c(N4CCC(=O)NC4=O)nn5C)C(F)(F)C3)CC2)c(Cl)cc1Nc1ncc(Br)c(Nc2ccccc2P(C)(C)=O)n1 (stereo not shown) [TC-138]
Outgoing: < 6.00

Incoming: I'd like to know its pIC50. The compound in question is CCc1cc(Nc2ncc(Br)c(Nc3ccc(OC4CC4)cc3P(C)(C)=O)n2)c(OC)cc1N1CC2(CCN(C(=O)CN3CCC(c4cc5c(cc4F)c(N4CCC(=O)NC4=O)nn5C)C(F)(F)C3)CC2)C1 (stereo not shown) [TC-232]
Outgoing: < 6.00

Incoming: I'd like to know its pIC50. The compound in question is CCc1cc(Nc2ncc(Cl)c(Nc3ccccc3P(C)(C)=O)n2)c(OC)nc1N1CCN(C(=O)CN2CCC(c3cc4c(cc3F)c(N3CCC(=O)NC3=O)nn4C)C(F)(F)C2)CC1 (stereo not shown) [TC-115]
Outgoing: 6.00 to 7.00

====

- TEST_NAME: Pharmacokinetic tests in male SD rats
- Type: in vivo
- CONDITION_INFO: oral gavage (po), 10 mg/kg, plasma
For each of the compounds below, state its HL.
In your response, the unit should come after the numeric value.

Incoming: I'd like to know its HL. The compound in question is CCc1cc(Nc2ncc(Br)c(Nc3ccccc3P(C)(C)=O)n2)c(OC)cc1N1CCN(C(=O)CN2CCC(c3cc4c(cc3F)c(N3CCC(=O)NC3=O)nn4C)C(F)(F)C2)CC1 (centres unmarked)
Outgoing: 2.81 h

Incoming: I'd like to know its HL. The compound in question is `CCc1cc(Nc2ncc(Cl)c(Nc3ccccc3P(C)(C)=O)n2)c(OC)cc1N1CCN(C(=O)CN2CCC(c3cc4c(cc3F)c(N3CCC(=O)NC3=O)nn4C)CC2)CC1`
Outgoing: 3.48 h

Incoming: I'd like to know its HL. The compound in question is CCc1cc(Nc2ncc(Cl)c(Nc3ccccc3P(C)(C)=O)n2)c(OC)cc1N1CC2(CCN(C(=O)CN3CCC(c4cc5c(cc4F)c(N4CCC(=O)NC4=O)nn5C)C(F)(F)C3)CC2)C1 (centres unmarked)
Outgoing: 3.99 h

Incoming: I'd like to know its HL. The compound in question is CCc1cc(Nc2ncc(Br)c(Nc3ccccc3P3(=O)CCCC3)n2)c(OC)cc1N1CC2(CCN(C(=O)CN3CCC(c4cc5c(cc4F)c(N4CCC(=O)NC4=O)nn5C)C(F)(F)C3)CC2(F)F)C1 (centres unmarked)
Outgoing: 3.59 h

Incoming: I'd like to know its HL. The compound in question is CCc1cc(Nc2ncc(Cl)c(Nc3ccccc3P(C)(C)=O)n2)c(OC)cc1N1CCN(C(=O)CN2CCC(c3cc4c(cc3F)c(N3CCC(=O)NC3=O)nn4C)C(F)(F)C2)CC1 (centres unmarked)
Outgoing: 2.66 h
